// data source = patent US6977246B2

Overview of recorded EC50 for various compounds
Biological target: P2Y1 receptor (Homo sapiens, UniProt P47900)
Sequence (P47900 whole entry): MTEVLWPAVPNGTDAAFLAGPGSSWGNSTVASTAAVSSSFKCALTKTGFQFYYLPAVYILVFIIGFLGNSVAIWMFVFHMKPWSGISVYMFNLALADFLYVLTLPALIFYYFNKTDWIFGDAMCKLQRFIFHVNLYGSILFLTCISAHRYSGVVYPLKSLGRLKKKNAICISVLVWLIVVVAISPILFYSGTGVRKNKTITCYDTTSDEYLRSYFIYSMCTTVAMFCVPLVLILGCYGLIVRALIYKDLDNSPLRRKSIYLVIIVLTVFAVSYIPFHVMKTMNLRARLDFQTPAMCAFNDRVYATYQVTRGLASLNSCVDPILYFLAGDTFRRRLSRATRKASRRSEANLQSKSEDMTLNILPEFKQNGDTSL
Test: cell-based
All answers are understood in µM, so give the number only.

{"COMPOUND": "O=c1ccn([C@@H]2O[C@H](COP(=O)(O)OP(=O)(O)NP(=O)(O)OP(=O)(O)OC[C@H]3O[C@@H](n4ccc(=O)[nH]c4=O)[C@H](O)[C@@H]3O)[C@@H](O)[C@H]2O)c(=O)[nH]1 [Example 3]", "UNITS OF MEASURE": "µM", "EC50": 3.67}

Below: the item to evaluate.
Prompt: Can you look up the measured EC50 of O=c1ccn([C@@H]2O[C@H](COP(=O)(O)OP(=O)(O)OP(=O)(O)OP(=O)(O)OP(=O)(O)OC[C@H]3O[C@@H](n4ccc(=O)[nH]c4=O)[C@H](O)[C@@H]3O)[C@@H](O)[C@H]2O)c(=O)[nH]1 [Example 5, P^1,P^5-Di(uridine 5′-pentaphosphate)] for me?
Response: 31.2
